assayedSystem: T1, recombinant extracellular domain protein of cynomolgus monkey DLL3 (cyno.DLL3-ECD-His) (cynomolgus monkey, UniProt A0A2K5WSR1 27-490)
T1 construct: extracellular domain; Commercial protein; not shown: His tag
T1 sequence: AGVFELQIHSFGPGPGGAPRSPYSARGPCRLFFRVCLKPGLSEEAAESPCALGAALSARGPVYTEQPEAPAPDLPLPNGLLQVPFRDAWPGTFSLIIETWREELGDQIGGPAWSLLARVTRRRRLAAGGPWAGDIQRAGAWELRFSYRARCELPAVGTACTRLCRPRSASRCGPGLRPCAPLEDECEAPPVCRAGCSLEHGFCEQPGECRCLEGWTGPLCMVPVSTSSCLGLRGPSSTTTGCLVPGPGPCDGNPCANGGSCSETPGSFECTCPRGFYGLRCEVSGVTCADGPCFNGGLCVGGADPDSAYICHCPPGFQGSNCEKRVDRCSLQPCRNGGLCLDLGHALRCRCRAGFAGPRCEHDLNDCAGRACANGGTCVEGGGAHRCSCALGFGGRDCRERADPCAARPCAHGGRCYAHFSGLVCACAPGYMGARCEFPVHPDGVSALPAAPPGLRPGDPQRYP
assayName: BLI (ForteBio), antibody on ProA sensor, cynoDLL3-ECD-His in solution
Would you mind telling me the reported koff of each entry?
Supply the numeric figure in s⁻¹, leaving out any unit text.

Enquiry: If you can, please state the reported koff value of 6F11C10-Hz1 antibody (antibody, human IgG1, kappa, V domains shown, Humanized IgG1/kappa) VH: EVQLVQSGAEVKKPGASVKVSCKASGFTFTDYYMHWVRQAPGQSLEWMGLVYPYNGDISYAQKFQGRVTLTVDTSISTAYMELSRLRSDDTAVYYCARQGNYVNNAIDYWGQGTLVTVSS VL: DIQMTQSPSSLSASVGDRVTITCKASQNVGNIIAWYQQKPGKSPKALIYLASYRYSGVPSRFSGSGSGTDFTLTISSLQPEDVATYFCQQYSDSPYTFGQGTKVEIKR .
Return: 0.000328

Enquiry: If you can, please state the reported koff value of 55C11E4-Hz1 (antibody, human IgG1, kappa, V domains shown, Humanized IgG1/kappa) VH: EVQLVQSGAEVKKPGASVKVSCKASGYTFTDYYMNWVRQAPGQRLEWMGVINPYNGGTNYSQKFQGRVTLTVDKSASTAYMELSSLRSEDTAVYYCARDSNYVGLLDYWGQGTLVTVSS VL: DIVLTQSPATLSLSPGERATLSCRASQSISNNLHWYQQKPGQAPRLLIKYASQSISGIPARFSGSGSGPDFTLTISSLEPEDFAVYFCQQSNSWPYTFGQGTKVEIKR .
Return: 0.000479

Enquiry: If you can, please state the reported koff value of 87F7F10-Hz (antibody, human IgG1, kappa, V domains shown, Humanized; also called 87F7F10-hz1) VH: QVQLQESGPGLVKPSETLSLTCTVSGYSITSDFYWNWIRQPPGKGLEWIGYITYDGSTNYNPSLKSRVTISRDTSKNQFSLKLSSVTAADTAVYYCVYGDFNRHAMDYWGQGTLVTVSS VL: DIVMTQSPDSLAVSLGERATINCRSSQSLFNSRTRKNYLAWYQQKPGQPPKVLIYWASTRESGVPDRFSGSGSGTDFTLTISSLQAEDVAVYYCEQSFYLFTFGQGTKVEIKR .
Return: 8.84e-05

Enquiry: If you can, please state the reported koff value of 59B10D3-Hz antibody (antibody, human IgG1, kappa, V domains shown, Humanized; also called 59B10D3-hz1) VH: EVQLVESGGGLVQPGGSLRLSCAASGFTFSDAWMDWVRQAPGKGLEWVAEIRNKANNHATYYVDSVKGRFTISRDDAKNSVYLQMNSLRAEDTAVYYCTRNNYGSTWTYYAMDYWGQGTLVTVSS VL: DIQMTQSPSSLSASVGDRVTITCRASQDISNYLNWYQQKPGKAVKLLIYYTSRLHSGVPSRFSGSGSGTDYTLTISSLQPEDFATYYCQQGYTLPLTFGQGTKVEIKR .
Return: 0.000908
